- assay-remarks: APR_HepG2_p53Act_24hr: Apredica 24-hour HepG2 Assay for p53 Activation (AID 2282913);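 note: p53 protein immunofluorescence averaged per cell in HepG2 with Hoechst nuclei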
- experimental-context: high-content imaging, actives raise or lower the signal
Active and inactive are the calls of the source. Rule for the calls: active = hit-call score of the fitted dose curve at least 0.9, where 1 is the maximum; inactive = score below 0.9.
Labels: active, inactive

| molecule | label |
| --- | --- |
| CCCCCCCC(=O)OC | inactive |
| CS(=O)(=O)c1ccc([C@@H](C[C@H]2CCC(=O)C2)C(=O)Nc2cnccn2)cc1Cl | inactive |
| O=C1c2c(O)cccc2Cc2cccc(O)c21 | inactive |
| CCC(C)N(C)C(=O)c1cc2ccccc2c(-c2ccccc2Cl)n1 (stereo not drawn) | active |
| CCc1cc(C2=C(C(=O)O)N(c3ccccc3C(F)(F)F)S(=O)(=O)c3ccccc32)cc2c1OCO2 | inactive |
| Oc1ccc(O)cc1 | active |
| CN(C)CCCN1c2ccccc2Sc2ccc(Cl)cc21 | active |
| Cc1cc(Cc2ccc(N)c(C)c2)ccc1N | inactive |
| CCCCC(CC)COP(=O)(OCC(CC)CCCC)OCC(CC)CCCC (stereo not drawn) | active |
| c1ccc2occc2c1 | inactive |
| CN(C)CCCN(C)CCCN(C)C | inactive |
| COC(=O)CCC(=O)OC | inactive |
| CCCCC(CC)COC(=O)CCCCCCCC(=O)OCC(CC)CCCC (stereo not drawn) | inactive |
